// data source = FireProtDB (doi:10.1074/jbc.273.32.19982)

B1: DNA-binding protein HU, P0A3H0 (parent)
chain: MNKTELINAVAETSGLSKKDATKAVDAVFDSITEALRKGDKVQLIGFGNFEVRERAARKGRNPQTGEEMEIPASKVPAFKPGKALKDAVK

- Variants of: B1
- condition: Geobacillus stearothermophilus; pH 7; Thermal; CD; Sodium phosphate 5 mM; NaCl 0.2 M; reversible: yes; structure 1HUE; whole UniProt chain shown
reported.metric: Tm (°C)
Supply the numeric figure in °C, leaving out any unit text.

V42I ... 60.1
K38N ... 61.5

// query Tm value for entry "E34D"
61.6

// query Tm value for entry "A27S"
58.4
